test system: SNB-19 CNS; test: NCI-60 one-dose screen, 48 h (100 = growth as untreated, 0 = no growth, -100 = all killed); settings: 10 µM unless noted
Compounds without any hit were thinned out: in the full panel of roughly 83,000, 20% have a hit.
Label Condition met when growth is at or above 40%; otherwise label Condition not met.

Problem: Please tell me: is the molecule "CC(=O)c1c(C)nc(SCC(=O)Nc2cccc(O)c2)n1-c1ccc(Cl)cc1" at or over 40% in terms of growth?
Solution: Condition met

Problem: Reported growth at or above 40%? "Nc1ncc(-c2ccc3ncnc(Nc4cccc(Cl)c4)c3c2)cn1"
Solution: Condition met

Problem: Is reported growth greater than or equal to 40% here: "Nc1nc2ccccc2c2c1S(=O)(=O)c1ccc(Cl)cc1C2=O"
Solution: Condition met

Problem: Dear colleague, could you confirm whether COc1cc2c(c(OC)c1OC)CCC(c1cccc(NC(=O)c3ccc(Br)cc3)c1)O2 (stereo unspecified) has growth at or above 40%?
Solution: Condition met

Problem: Tell me whether growth is at least 40% here: CC(C)=CCCC(C)c1ccc(C)c2c1OCN(CCCCCO)C2 (stereo unspecified)
Solution: Condition met

Problem: I'd appreciate it if you could say whether "c1cnc2c(-c3nc4ccc5[nH]ncc5c4c4c3CCCC4)c[nH]c2c1" has growth at least equal to 40%.
Solution: Condition not met

Problem: Confirm if growth reported for the molecule "CCOC(=O)c1cc2c(n1C)-c1nc(NC(C)=O)sc1CCC2" is 40% or above.
Solution: Condition met

Problem: Threshold query (growth >= 40%) on "Cc1ccc(-c2nc(N3CCCNCC3)c3oc(-c4ccccc4)nc3n2)cc1"
Solution: Condition not met

Problem: Tell me whether growth is at least 40% here: "COc1cc(OC)c(NC(=O)c2cc3ccccc3cc2O)cc1Cl"
Solution: Condition met

Problem: Item O=C(CN1C(=O)NC2NC(=O)NC21)N/N=C/c1ccccc1[N+](=O)[O-] (stereo unspecified) with growth of 40% or above?
Solution: Condition met

Problem: # check: growth of "COc1ccc(F)cc1/C=C/C(=O)/C=C(/C=C/c1cc(F)ccc1OC)OB(F)F" is greater than or equal to 40%
Solution: Condition met

Problem: Has "CCOC(=O)c1c(NC(=O)c2cccc(C(F)(F)F)c2)sc2c(CN(C)C)c(O)ccc12" a recorded growth greater than or equal to 40%?
Solution: Condition met

Problem: Does "O=C(/C=C/c1ccco1)Nc1ncc(Cc2cccc(C(F)(F)F)c2)s1" have a reported growth of at least 40%?
Solution: Condition not met

Problem: Identify whether the reported growth of the following molecule is 40% or greater: "O=C(CSc1nc2ccc([N+](=O)[O-])cc2[nH]1)Nc1ccc([N+](=O)[O-])cc1"
Solution: Condition not met

Problem: API: above_or_equal(metric=growth, cutoff=40%) for item "Cc1cc(S(=O)(=O)/N=C(\N)n2nc(C)c(C)c2C)c(SCc2ccccc2)cc1Cl"
Solution: Condition met

Problem: Has "CCOC(=O)c1csc(NC(=O)COc2ccc(/C=C3\Oc4ccccc4C3=O)cc2)n1" a recorded growth greater than or equal to 40%?
Solution: Condition met

Problem: Would you say "O=c1c2cnn(-c3ccccc3)c2n2c(CN3CCOCC3)nnc2n1-c1ccccc1" shows growth at minimum 40%?
Solution: Condition met

Problem: Please check the record "COc1ccc(-c2nc3c(ncc4ccc(=O)[nH]c43)s2)cc1" and state if its growth is at or above 40%.
Solution: Condition met

Problem: Could you please find out whether "CC(C)c1ccc(Cc2cnc(NC(=O)c3cc(Br)cs3)s2)cc1" has growth that meets 40% or exceeds it?
Solution: Condition met

Problem: hey, is growth for this one >= 40%? "Cc1cccc(/C=C/c2c(C(=O)/C=C/c3ccccc3)c(C)nc3ccccc23)c1"
Solution: Condition not met

Problem: Has "COC1=CC(c2ccc[nH]2)=N/C1=C\c1[nH]c(C)c(C(=O)OC(C)C)c1C" a recorded growth greater than or equal to 40%?
Solution: Condition not met
